B1: IQUB (parent)
chain: EADYEDDSKIAFLMQLQDIQYLTE

Variants of: B1
Experiment: protein stability index of a GFP-peptide fusion (GPS, HEK-293T) (PSI 1-6); higher = more stable;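 also: lentivirally expressed fusions sorted by FACS into six bins by GFP to DsRed ratio, PSI derived from sequencing read proportions per bin multiplied by bin number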
Conditions: c terminus: a fixed tail appended

>  <VARIANT ANNOTATION>
I19N

>  <protein stability index>
3.98

$$$$
>  <VARIANT ANNOTATION>
M14Y

>  <protein stability index>
2.92

$$$$
>  <VARIANT ANNOTATION>
Q20T

>  <protein stability index>
3.05

$$$$
